The measurements presented in this section are drawn from the EternaBench riboswitch data.

- System: MS2 coat protein
- assay: apparent Kd, MS2 coat protein; higher = weaker binding; RNA-MaP array; FMN 200 µM where present
- test context: ligand present: flavin mononucleotide; designed as: ON switch for flavin mononucleotide
# reported apparent Kd; entries follow

Previously resolved entries follow.
UGGUACAUCGGAGGAUAUCGUGUGUAAACAUGAGGAUCACCCAUGUCGUACGAGAGUACGUAGAUCGAGAAGGCCGAUGUACCU
14.7 nM
GGAUGAUUAAUAGGAUAUUAGUUGUAAAAUGGUUAAGAAGGAUUAAUGAUUUAAACGACCAGUUACAUGAGGAUCACCCAUGUA
18.9 nM
AAGUCUGGAUGAGGAUAUCAGCUGUAACUGGCGUCGACAUGAGGAUCACCCAUGUUGCUAUAGGGUGAGAAGGCAUUUGGGCAA
28.8 nM
GUCGGAAACGACAAAAGUAUGGAUCCAGAAGGCAUGACACAUGAGGAUCACCCAUGUCUAAGAUAUGAGGAUAUGGAUCCAUAC
4.71 nM
AACAUGAGGAUCACCCAUGUCCCACCAGAAGGCUGGCGGUGGUGGUAAAGGCCACGACAAAUAACAGAGGAUAUGGUGAAUGCA
18.8 nM
CGAAGUCCGUAGAAGGGUGACAUGAGGAUCACCCAUGUGCGAGCGGAGGGAGUCAUCGGCUCGCCACAGGAUAUACGGAGCACG
49.2 nM

Pending sequence:
Prompt: Looking for the measured apparent Kd of "CCAGAUUUCACAGGAUAUAUUGAUGACAUGAGGAUCACCCAUGUACCGGCAGUAGAAGGGUGAACGCACGUGACCACGUGCGUG" , can you help?
Completion: 14.9 nM

====

- Test system: MS2 coat protein
- assay: apparent Kd, MS2 coat protein; higher = weaker binding; RNA-MaP array; tryptophan 2.4 mM where present
- test context: ligand present: tryptophan; designed as: OFF switch for tryptophan
readout kind: apparent Kd (nM)
Lab book: enter the figure in nM, no units written.

UUCGUAUUGUCGGCCGCCACUGCAACAUGAGGAUCACCCAUGUAAAUUUGGGAGUAGUUAUAUUACAGGACCGGGACAAUAGUAA
139
GCUGGACUUUCGGCCGCCACUGAGAGAGUCGUGUGAACAUGAGGAUCACCCAUGUAAUAUAUAUACAGGACCGGGAGGGUUGUGC
11.9
UUAGUAACGACGGCCGCCACUGAAUUUGAACAUGAGGAUCACCCAUGUAGAGAUCCUAGAAUAAACAGGACCGGGUCUGAUAAUG
118
GAACAGUCGGACAUGAGGAUCACCCAUGUGCGAGGACCGGUACGGCCGCCACUCGACAAGGGCGGUCCCGAAGCGAACAUACGCG
14.7
GGAGUAGGAAACUAUUCCAAUCCUCGUGAACGAGGACCGGUACGGCCGCCACUCGAUAAUUAAUAACAUGAGGAUCACCCAUGUA
121
UAUUAUCAGUCGGCCGCCACUGUCACAUGAGGAUCACCCAUGUAACUUGGGUUAUAUUUAAUAUACAGGACCGGGACAAAGGCUA
115

Pending sequence:
Prompt: Looking for the measured apparent Kd of "AGAUUCGACACGGCCGCCACUUUCAGUGGCUGGUCACAUGGUGCACAUGAGGAUCACCCAUGUGGAAGGACCGGGUGUUGAGUCU" , can you help?
Completion: 91.9
